# testDescription: stimulators of nuclear beta-catenin in C2C12, primary screen, imaging, WNT3A-conditioned medium, mouse C2C12, NPC library (AID 1117326); also: reference of the scale not given here
# conditionDescription: stimulation, at 2 µM, stronger effect = higher value
Could you please report measured nuclear beta-catenin stimulation for the items listed next?
Quote the value and follow it with the unit of measurement.

Report nuclear beta-catenin stimulation for CCNC(=O)NCCCOc1cccc(CN2CCCCC2)c1 -1.5%

Report nuclear beta-catenin stimulation for CCCCC(C)(O)CC=C[C@H]1[C@H](O)CC(=O)[C@H]1CCCCCCC(=O)OC (some centres not stated) 2.4%

Report nuclear beta-catenin stimulation for CCN(CC)CC(=O)Oc1ccc(NC(C)=O)cc1 6.1%

Report nuclear beta-catenin stimulation for Nc1ccc(S(=O)(=O)NCc2ccccc2)cc1 1.8%

Report nuclear beta-catenin stimulation for O=C(O)c1cc(=O)c2c3nc4ccccc4oc-3cc(=O)c2[nH]1 -0.7%

Report nuclear beta-catenin stimulation for NC(N)=NN=C(/C=C/c1ccc([N+](=O)[O-])o1)/C=C/c1ccc([N+](=O)[O-])o1 56.2%

Report nuclear beta-catenin stimulation for CC1(C)S[C@@H]2[C@H](NC(=O)Cc3ccccc3)C(=O)N2[C@H]1C(=O)O (tested in a mixture with another compound) -0.3%

Report nuclear beta-catenin stimulation for CC[C@@]1(O)C(=O)OCc2c1cc1n(c2=O)Cc2c-1nc1ccccc1c2/C=N/OC(C)(C)C 59.7%

Report nuclear beta-catenin stimulation for CN(C)C(=O)CNC(=O)Cc1ccccc1 2.4%

Report nuclear beta-catenin stimulation for CCCCCCCCCCCCOCCOCCOCCOCCOCCOCCOCCOCCOCCO 1.9%

Report nuclear beta-catenin stimulation for C#CC(C)(CC)OC(=O)c1ccccc1C(=O)O (configuration not stated) 1.3%

Report nuclear beta-catenin stimulation for CS(=O)(=O)c1ccc(-c2cn3ccccc3n2)cc1 -0.4%

Report nuclear beta-catenin stimulation for CN(C)CCN(Cc1ccsc1)c1ccccn1 1.7%

Report nuclear beta-catenin stimulation for OC[C@]1(O)OC[C@@H](O)[C@H](O)[C@@H]1O 0.4%

Report nuclear beta-catenin stimulation for CCN1CCCC1CN (configuration not stated) 1.8%

Report nuclear beta-catenin stimulation for COc1ccc2cc1Oc1cc3c(cc1OC)CC[N+](C)(C)[C@H]3Cc1ccc(cc1)Oc1c(OC)c(OC)cc3c1[C@@H](C2)[N+](C)(C)CC3 -0.1%

Report nuclear beta-catenin stimulation for COc1ccc2c(c1)c(CC(=O)O)c(C)n2C(=O)c1ccc(Cl)cc1 1%

Report nuclear beta-catenin stimulation for CCCN1C[C@H](CSC)C[C@@H]2c3cccc4[nH]cc(c34)C[C@H]21 -1.1%

Report nuclear beta-catenin stimulation for CCCCNC(=O)NS(=O)(=O)c1ccc(C)cc1 3.2%

Report nuclear beta-catenin stimulation for CCCCC(O)/C=C(C)/C=C/C=C/C(=O)N1CCCC1=O (configuration not stated) -0.4%

Report nuclear beta-catenin stimulation for CCOC(=O)C1=C(O)c2ccccc2S(=O)(=O)N1C -0.7%

Report nuclear beta-catenin stimulation for COc1ccc2nc(SCc3ncc(C)c(OC)c3C)[nH]c2c1 0.8%
